This section presents sequences with their documented gcPBM binding intensity (ln) values.
# Tested on: PfAP2-EXP AP2 domain (GST-tagged)
# experiment.summary: gcPBM binding intensity (ln(normalized median fluorescence intensity)); higher = stronger DNA binding
The full ranking holds about 25,000 sequences; the median of “ln(normalized median fluorescence intensity)” is about 8.6, and the highest 2% start at about 10. The sample as a whole holds a higher share of the highest values than the screen did.

| residue.codes | gcPBM binding intensity (ln) |
| --- | --- |
| TGTGCTATATTCATATGTACATATAATTATTATATA [XGTACX_site3549] | 8.86 |
| TACCTATACAGACACACACACACACGCCCACAAAAA [CACACA_site6375] | 8.77 |
| TATCATATAAAACATGCACACATATGTACTCTTATA [CACACA_site9249] | 8.77 |
| AAAAAAAAATTAAAATGTACACATAAAAAAAAAAAA [XGTACX_site794] | 8.64 |
| ATTTGTATATAATATATATAATTTTTTTTTTTTGTT [XGTACX_negctrl_site425] | 8.2 |
| ATGATGTGCAAGAGTAGTACACAATTTTGGGTTTAT [XGTACX_site501] | 8.76 |
| TGTATACGCATATGTACACACATATATATGTATATG [CACACA_site3087] | 8.65 |
| TGTTAATTTCATTTTCTACACACCTATCCTTTTTTT [CACACA_site8157] | 8.88 |
| AACATATATATAATATGTACATAATATATATAAATG [XGTACX_site1161] | 8.52 |
| TTTGAAATAAGCAAATGTACATTATTATTAAATATA [XGTACX_site6158] | 8.38 |
| TCATAAATATGAAAAAGTACAAAGGTAGATTTTGAA [XGTACX_site4535] | 8.48 |
| ATGTATATATATATATGTACATATTTTTTATATGTA [XGTACX_site441] | 8.29 |
| TACATTGTATACATATGTACACATATATATATATAT [XGTACX_site6174] | 10.1 |
| TGTATGTTTATTTATCGTACATATATATATATATAT [XGTACX_site7315] | 10.2 |
| TCTTTCTTATATTTATATAATTATATTTATTTTATA [GTGCAC_negctrl_site300] | 8.74 |
| TTTTCATTCAATTATATTTATATATATATATATATA [GTGCAC_negctrl_site538] | 10.2 |

====

# Test system: PfAP2-EXP AP2 domain (GST-tagged)
# experiment.summary: gcPBM binding intensity (ln(normalized median fluorescence intensity)); higher = stronger DNA binding
In all, about 25,000 sequences were measured (“ln(normalized median fluorescence intensity)”: median about 8.6, highest 2% from about 10 on). This excerpt belongs to a sample that is enriched for the highest values.
The threshold is inclusive: gcPBM binding intensity (ln) of exactly 10 counts as true (1); values below receive false (0).

| residue.codes | label.class |
| --- | --- |
| GTAATACCCAAACACACACACATACCCATATATATA [CACACA_site5510] | false (0) |
| TTTGCAACATATAAAAGTACAAATAATATATTTATT [XGTACX_site890] | false (0) |
| AATACATACGGACACACACACACATATATATATATA [CACACA_site5884] | true (1) |
